target: furin, P09958; assay: furin cleavage Z-score vs untreated control; higher = more cleavage, active = 3.5 or more, inactive = 1 or less, 8 variable residues between constant flanks; settings: 7.5 min;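 note: purified furin at 1:10 enzyme:substrate in 50 mM HEPES pH 7.5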
Sequence (P09958 whole entry): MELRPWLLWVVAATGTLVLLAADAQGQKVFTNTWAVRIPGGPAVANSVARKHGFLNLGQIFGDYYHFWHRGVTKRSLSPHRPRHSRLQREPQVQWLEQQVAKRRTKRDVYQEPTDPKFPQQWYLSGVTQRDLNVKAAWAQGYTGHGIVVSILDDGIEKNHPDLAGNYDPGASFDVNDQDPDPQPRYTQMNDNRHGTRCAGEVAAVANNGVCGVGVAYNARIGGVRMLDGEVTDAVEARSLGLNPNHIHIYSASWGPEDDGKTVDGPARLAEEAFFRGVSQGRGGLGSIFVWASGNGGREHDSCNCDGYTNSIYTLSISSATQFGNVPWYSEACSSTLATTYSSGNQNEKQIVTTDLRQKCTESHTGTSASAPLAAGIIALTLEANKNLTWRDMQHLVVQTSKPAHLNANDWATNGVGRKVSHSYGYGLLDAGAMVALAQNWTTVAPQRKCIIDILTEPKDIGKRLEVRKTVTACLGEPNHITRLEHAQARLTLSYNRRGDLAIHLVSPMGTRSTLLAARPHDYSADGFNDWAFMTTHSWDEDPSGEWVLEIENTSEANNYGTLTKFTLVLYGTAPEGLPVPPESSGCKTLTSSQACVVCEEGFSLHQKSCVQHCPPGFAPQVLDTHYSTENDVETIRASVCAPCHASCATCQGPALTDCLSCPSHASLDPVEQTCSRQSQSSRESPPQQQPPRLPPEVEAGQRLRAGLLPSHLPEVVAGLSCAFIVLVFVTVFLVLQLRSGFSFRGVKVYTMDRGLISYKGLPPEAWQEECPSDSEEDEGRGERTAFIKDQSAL
The list shows a part of the results. No count for the full screen is at hand.
Classify as follows. Reported furin cleavage Z-score greater than or equal to 0.1: true (1). Reported furin cleavage Z-score below: false (0).

Solved cases below.
construct_sequence | answer_label
CAKWEYVVLLAGNASASA [HC518] | false (0)
CAYYRGLDVSAGNASASA [HC869] | true (1)
CASTHCSAHLAGNASASA [HC2515] | true (1)
CAYLARNARIAGNASASA [FS-319] | false (0)

[ask] Confirm if furin cleavage Z-score reported for the sequence CAVGSKQRRIAGNASASA [FS-631] is 0.1 or above.
[reply] false (0)

[ask] Confirm if furin cleavage Z-score reported for the sequence CAGLSRHRRIAGNASASA [FS-1329] is 0.1 or above.
[reply] true (1)

[ask] Confirm if furin cleavage Z-score reported for the sequence CASLVRNRRIAGNASASA [FS-626] is 0.1 or above.
[reply] true (1)
